# credit: patent US7488598B2

Target Under Test: E. coli PNP mutant M65V (Escherichia coli, UniProt P0ABP8, M65V)
Sequence (P0ABP8 whole entry M65V): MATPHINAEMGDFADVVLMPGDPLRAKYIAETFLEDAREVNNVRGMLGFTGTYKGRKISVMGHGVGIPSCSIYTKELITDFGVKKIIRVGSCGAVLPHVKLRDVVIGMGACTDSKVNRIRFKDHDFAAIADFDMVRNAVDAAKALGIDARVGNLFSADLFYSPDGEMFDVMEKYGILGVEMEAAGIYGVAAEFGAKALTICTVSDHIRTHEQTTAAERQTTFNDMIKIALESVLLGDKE
Condition Parameters: Table III; crude extract; 100 μM substrate; HPLC; average of separate experiments
Measurement Name: M65V, crude extract, rate of cleavage

molecule_smiles=C#C[C@@H](O)[C@H]1O[C@@H](n2cnc3c(C)ncnc32)[C@H](O)[C@@H]1O measurement_name="M65V, crude extract, rate of cleavage" reading="119 nmol/mg/h"
molecule_smiles=Cc1ncnc2c1ncn2[C@@H]1O[C@H]([C@H](C)O)[C@@H](O)[C@H]1O measurement_name="M65V, crude extract, rate of cleavage" reading="75,000 nmole/mg/hr"
molecule_smiles=Nc1ncnc2c1ncn2[C@@H]1O[C@@H](CO)[C@@H](O)[C@H]1O measurement_name="M65V, crude extract, rate of cleavage" reading="54,000 nmole/mg/hr"
molecule_smiles=Cc1ncnc2c1ncn2[C@@H]1O[C@H](C)[C@@H](O)[C@H]1O measurement_name="M65V, crude extract, rate of cleavage" reading="1800 nmol/mg/h"
molecule_smiles=Nc1nc(F)nc2c1ncn2[C@@H]1O[C@@H](CO)[C@@H](O)[C@H]1O measurement_name="M65V, crude extract, rate of cleavage" reading="222,000 nmole/mg/hr"
molecule_smiles=Cc1ncnc2c1ncn2[C@@H]1O[C@H](CO)[C@@H](O)[C@@H]1O measurement_name="M65V, crude extract, rate of cleavage" reading="3 nmol/mg/h"
molecule_smiles=Cc1ncnc2c1ncn2[C@H]1C[C@H](O)[C@@H](CO)O1 measurement_name="M65V, crude extract, rate of cleavage" reading="535,000 nmole/mg/hr"
molecule_smiles=C[C@H](O)[C@H]1O[C@@H](n2cnc3c(N)nc(F)nc32)[C@H](O)[C@@H]1O measurement_name="M65V, crude extract, rate of cleavage" reading="1,110,000 nmole/mg/hr"
